TARGET SYSTEM: T1, human CLL1 on the surface of transfected cells (HEK293-CLL1; HEK-293T membrane proteome array) (human, UniProt Q5QGZ9 1-265)
T1 construct: whole, on cells; also called HEK293-CLL1 cells; CLL1 target antigen
T1 sequence (looked up): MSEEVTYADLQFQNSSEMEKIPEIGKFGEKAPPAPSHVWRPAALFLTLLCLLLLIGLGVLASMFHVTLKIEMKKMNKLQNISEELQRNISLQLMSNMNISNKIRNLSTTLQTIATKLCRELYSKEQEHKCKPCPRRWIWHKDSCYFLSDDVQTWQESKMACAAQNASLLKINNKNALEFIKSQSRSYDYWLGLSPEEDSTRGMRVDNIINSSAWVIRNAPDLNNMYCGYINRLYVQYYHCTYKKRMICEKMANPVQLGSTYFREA
PROCEDURE TEXT: flow cytometry on HEK293 cells overexpressing CLL1, FITC goat anti-human IgG-Fc secondary; controls on the sheet: Cells + Secondary Antibody 1029.8, Blank 1041.3
READOUT TYPE: MFI at 0.01ug/ml

- BINDER: "anti-human CLL-1 control antibody 1075.7 (antibody, it was captured by anti-human IgG sensors and detected with anti-human IgG-Fc, so a human Fc was present; also called ch1075.7) scFv: ENVLTQSPAIMSASPGEKVTMTCRASSNVISSYVHWYQQRSGASPKLWIYSTSNLASGVPARFSGSGSGTSYSLTISSVEAEDAATYYCQQYSGYPLTFGAGTKLELGGGGSGGGGSGGGGSDIQLQESGPGLVKPSQSLSLTCSVTGYSITSAYYWNWIRQFPGNKLEWMGYISYDGRNNYNPSLKNRISITRDTSKNQFFLKLNSVTTEDTATYYCAKEGDYDVGNYYAMDYWGQGTSVTVSS"
  READOUT TYPE: "MFI at 0.01ug/ml"
  EXPERIMENTAL VALUE: 4580
